Please provide measured normalized growth for the entries that follow.
# ASSAY INFO: chemical genetic growth profiling, strain panel (AID 1159580);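 also: tested at 20 µM; growth read once vehicle control cultures reached saturation at 30 °C; 1 = growth at the plate median or of vehicle wells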
# STUDY CONDITIONS: S. cerevisiae deletion strains, growth OD, locus YAL030W, strain snc1, stronger effect = lower value
Among all 5,500 compounds or so, about 2,000 (36%) were called active. Inconclusive results (about 18%) are left out. Some of the results follow.
One number for each entry.

Below, each entry is followed by its recorded normalized growth result.
CCN1C[C@@]2(COC)C3[C@@H](OC)[C@H]4[C@@H]1[C@]3(C(OC)C[C@H]2O)C1C[C@@]2(O)[C@H](OC(=O)c3ccccc3)C1[C@]4(OC(C)=O)[C@@H](O)[C@@H]2OC (some centres undefined) : 1
C[C@H]1C[C@@H](O)[C@]2(O)[C@@]13CC(=O)OC[C@@]2(C)[C@](C)(O)C(=O)C3 : 1.02
COc1ccc(-c2oc3cc(OC)c(OC)c(OC)c3c(=O)c2OC)cc1OC : 0.979
C1N2CN3CN1CN(C2)C3 : 0.993
COc1cc2c(cc1OC)C1(O)C(=O)c3ccc(O)c(C(=O)O)c3OC1CO2 (centres undefined) : 1

Required: normalized growth, one value per molecule below.
1. COC(=O)/C(C)=C\CC12OC(C)(C)C3CC(C=C4C(=O)c5c(OC)c6c(c(CC=C(C)C)c5OC431)OC(C)(CCC=C(C)C)C=C6)C2=O (centres undefined)
2. NC(=O)CS(=O)C(c1ccccc1)c1ccccc1 (centres undefined)
3. COc1ccc(-c2oc3cc(OC)c(OC)c(OC)c3c(=O)c2OC)cc1
4. O=c1[nH]c(=O)n(C2C[C@H](O)[C@@H](CO)O2)cc1C(F)(F)F (some centres undefined)

[1.03, 1.02, 0.979, 0.979]

----------
# ASSAY INFO: chemical genetic growth profiling, strain panel (AID 1159580)
# STUDY CONDITIONS: S. cerevisiae deletion strains, growth OD, locus YBR229C, strain ROT2
Screen size: about 5,500 compounds; about 2,000 (36%) were called active. Roughly 18% stayed inconclusive and do not appear here. Rule as the data show it: active = normalized growth mostly below about 0.91 (no sharp cut-off); inconclusive = no clear call, values can overlap the other calls; inactive = mostly above about 0.92. This is one part of the list.
// one of active, inactive, no free text

Consider the worked cases shown below.
COc1ccc2oc(-c3ccccc3)c(OC)c(=O)c2c1 : inactive
Cc1onc(-c2ccccc2)c1-c1ccc(S(N)(=O)=O)cc1 : inactive
NNC(=O)c1cnn(-c2ccc(Cl)cc2)c1C(F)(F)F : inactive

Call for entry CCOC(=O)c1cnn(-c2ccc(N)cc2)c1C(F)(F)F :
inactive

Recorded test outcome, item N/C(=N/OC(=O)Nc1ccccc1)c1ccc(C2SCCS2)cc1
active

What classification did COC1C=CC23c4cc5c(cc4CN(CC2O)[C@@H]3C1)OCO5 (some centres not stated) end up with in this test?
inactive

How was Nc1ncnc(SCc2ccc(Cl)cc2)n1 classified in this test?
inactive

Each compound tested received a call. Report the one for Cc1onc2c(=O)n(-c3ccccc3)nc(-c3ccccc3)c12 .
inactive

----------
# ASSAY INFO: chemical genetic growth profiling, strain panel (AID 1159580)
# STUDY CONDITIONS: S. cerevisiae deletion strains, growth OD, locus YKL101W, strain HSL1, stronger effect = lower value
Among all 5,500 compounds or so, about 2,000 (36%) were called active. Inconclusive results (about 18%) are left out. The list shows a part of the results.
Threshold-based label: normalized growth under 0.9 gives true (1), normalized growth not under 0.9 gives false (0).

Worked examples, 3 molecules total:
Cn1nccc1-c1cc(Cl)cc(Cl)c1O : true (1)
Brc1ccc(-c2csc(-c3cccnc3)n2)cc1 : true (1)
CC1=CC(=O)N(c2ccc(OC(F)(F)F)cc2)C1=O : true (1)

I wonder whether O=C(NNc1ccccc1)c1cc(-c2ccc(Cl)cc2)oc1C(F)(F)F has normalized growth below 0.9. Can you tell?
true (1)

Given the entry CC(C)(C)C1=C(C#N)C(c2c(Cl)cccc2Cl)C(C#N)=C(N)O1 (stereo not drawn) , would its reported normalized growth be below 0.9?
false (0)

Answer whether the molecule Cc1ccc(S(=O)(=O)Nc2nc(-c3ccc(C)c(Cl)c3)c(C)s2)cc1 has normalized growth strictly less than 0.9
false (0)

Is 0.9 strictly greater than the molecule's reported normalized growth? molecule: O=[N+]([O-])c1ccsc1Oc1cccc(C(F)(F)F)c1
false (0)

Take the molecule COc1ccc(Nc2nc(NC(=O)Nc3ccc(Cl)cc3)n[nH]2)cc1 and say whether its normalized growth is less than 0.9.
true (1)

Find out if reported normalized growth for CC1=CC(=O)N(c2ccc(F)c(Cl)c2)C1=O is less than 0.9
true (1)

----------
# ASSAY INFO: chemical genetic growth profiling, strain panel (AID 1159580)
# STUDY CONDITIONS: S. cerevisiae deletion strains, growth OD, locus YJL095W, strain BCK1, stronger effect = lower value
Among all 5,500 compounds or so, about 2,000 (36%) were called active. About 18% were inconclusive and are not listed. The list shows a part of the results.
METRIC: normalized growth
Numbers only.

Examples with their reported normalized growth follow.
CC(=O)NCCc1c[nH]c2ccc(O)cc12 : 0.982
CCCCCCCCCCCC(=O)OCC(COP(=O)(O)OCC(O)COP(=O)(O)OCC(COC(=O)CCCCCCCCCCC)OC(=O)CCCCCCCCCCC)OC(=O)CCCCCCCCCCC (stereo not given) : 0.816
CCCCCCCCCCCCCCCC(=O)OCC(O)CO (stereo not given) : 0.967
O=C(O)COc1ccc(Cl)cc1Cl : 1.02
CCOC(=O)c1sc(S(C)=NC(=O)Nc2ccc(Cl)cc2)c2c1CCC=C2 (stereo not given) : 0.963

Please give normalized growth, item by item, for the list that follows.
1. COP(=S)(OC)Oc1ccc(Sc2ccc(OP(=S)(OC)OC)cc2)cc1
2. NC(=O)CS(=O)C(c1ccccc1)c1ccccc1 (stereo not given)
3. CCC(C)C(=O)c1c(O)c(C)c2oc3c(C)c(O)c(C(=O)C(C)CC)c(O)c3c2c1O (stereo not given)
4. COc1ccc2c(c1)OCC(Cc1ccc(O)c(OC)c1)C2=O (stereo not given)
5. CC(=O)OC/C=C(\C)CC/C=C(\C)CC/C=C(\C)CC/C=C(\C)CC/C=C(\C)CC/C=C(\C)CC/C=C(\C)CC/C=C(\C)CCC=C(C)C

0.999
0.996
0.882
1.05
1.02

----------
# ASSAY INFO: chemical genetic growth profiling, strain panel (AID 1159580);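 also: tested at 20 µM; growth read once vehicle control cultures reached saturation at 30 °C; 1 = growth at the plate median or of vehicle wells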
# STUDY CONDITIONS: S. cerevisiae deletion strains, growth OD, locus YNL067W, strain RPL9B
Out of some 5,500 compounds screened, about 2,000 (36%) were called active. Inconclusive results (about 18%) are left out. Rule as the data show it: active = normalized growth mostly below about 0.91 (no sharp cut-off); inconclusive = no clear call, values can overlap the other calls; inactive = mostly above about 0.92. This is one part of the list.
Permitted responses: 1 = active, -1 = inactive

CC(=O)O[C@@H]1CC2C(C)(C)[C@H](O)CC[C@]2(C)C2CC[C@@]3(C)[C@H](c4ccoc4)OC(=O)[C@H]4O[C@]43[C@@]21C (some centres undefined) : -1

Hello, I am checking results. What call was entered for COC(=O)[C@@H]1OC(=O)C2OC23[C@@]1(C)CCC1[C@@]2(C)CCC(=O)C(C)(C)C2C[C@@H](OC(C)=O)[C@]13C (some centres undefined) ?
-1

----------
# ASSAY INFO: chemical genetic growth profiling, strain panel (AID 1159580);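 also: tested at 20 µM; growth read once vehicle control cultures reached saturation at 30 °C; 1 = growth at the plate median or of vehicle wells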
# STUDY CONDITIONS: S. cerevisiae deletion strains, growth OD, locus YNL128W, strain TEP1, stronger effect = lower value
The whole screen tested about 5,500 compounds, of which about 2,000 (36%) were called active. Inconclusive results (about 18%) are left out. This is one part of the list.
Please assign 0 whenever normalized growth is at or above 0.6, and 1 whenever it is below.

Please determine if NCCCCNCCCN is below 0.6 in terms of normalized growth.
0

Does CCOC(=O)C(=CNNS(=O)(=O)c1cc(C(F)(F)F)cc(C(F)(F)F)c1)C(=O)OCC have normalized growth strictly under 0.6?
0

Hello, I'm reviewing records and need to know if normalized growth of O=S(=O)(NCCc1ccncc1)c1cc(C(F)(F)F)cc(C(F)(F)F)c1 is below 0.6. Could you check?
0

Below 0.6 on normalized growth? Entry Cc1cc(/C=C/c2ccc3cc(N(C)C)ccc3[n+]2C)c(C)n1-c1ccccc1
1

Problem: For the molecule O=C(O)CCC1NCC2CC1CN1CCCCC21 (stereo unspecified) , is normalized growth under 0.6?
0

----------
I'd appreciate it if you could supply normalized growth values for the items below.
# ASSAY INFO: chemical genetic growth profiling, strain panel (AID 1159580);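 also: tested at 20 µM; growth read once vehicle control cultures reached saturation at 30 °C; 1 = growth at the plate median or of vehicle wells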
# STUDY CONDITIONS: S. cerevisiae deletion strains, growth OD, locus YLR371W, strain rom2, stronger effect = lower value
The whole screen tested about 5,500 compounds, of which about 2,000 (36%) were called active. Inconclusive results (about 18%) are left out. The list shows a part of the results. Where a SMILES comes first, the peptide text is derived from it.
One number for each entry.

Here are 5 compounds together with their reported answers.
O=c1oc2ccccc2cc1O : 1.02
CN(C)CCC(c1ccccc1)c1ccccn1 (stereo not given) : 1.01
COc1ccc2c(c1)OCC(Cc1ccc(OC)c(OC(C)=O)c1)C2=O (stereo not given) : 1.01
Fc1ccc([C@@H]2CCNC[C@H]2COc2ccc3c(c2)OCO3)cc1 : 1.01
NC1(C(=O)O)CCCC1 : 1

For each of the compounds below, state normalized growth.
1. NCCCNCCSP(=O)(O)O
2. COc1cc2c(cc1OC)C1(O)C(=O)c3ccc(O)c(C(=O)O)c3OC1CO2 (stereo not given)
3. CC1OC(O[C@H]2/C=C/C=C/C=C/C=C/C=C/C=C/C=C/[C@H](C)[C@@H](O)[C@@H](C)[C@H](C)OC(=O)CC(O)CC(O)CCC(O)C(O)CC(O)C[C@]3(O)C[C@H](O)C(C(=O)O)C(C2)O3)C(O)[C@H](N)C1O (stereo not given in full)
4. CC(C)/C(O)=C1/C(=O)O[C@@H](c2ccoc2)[C@]2(C)C(O)[C@@H](O)[C@@]34OC5(C)OC67CC(C)(C(O)[C@]6(O)[C@@H](O)[C@]3(O5)C12)[C@H](CC(=O)O)[C@]74C (stereo not given in full)

1: 0.974; 2: 1; 3: 1.03; 4: 1.01

Can you give me normalized growth for all of these, one by one?
1. CNc1ccc(C(=O)CC(O)CCC(C)C2OC(=O)CC(O)CC(=O)CC(O)CC(O)CC(O)CC(O)CC3(O)CC(O)C(C(=O)OC)C(CC(OC4OC(C)C(O)C(N)C4O)/C=C/C=C/C=C/C=C/C=C/C=C/C=C/C2C)O3)cc1 (stereo not given)
2. CC(=O)O[C@H]1C[C@@]2(C)[C@@H](C[C@@H](O)C3[C@]2(C)CC[C@H]2[C@H](C)[C@H](O)CC[C@]32C)/C1=C(/CCC=C(C)C)C(=O)O (stereo not given in full)
3. COC[C@]12CN(C=O)C3[C@@H]4[C@H](OC)C1[C@]3(C1CC3(O)C(OC)C(O)C4(OC(C)=O)C1C3OC(=O)c1ccccc1)[C@@H](OC)C[C@H]2O (stereo not given in full)
4. O=c1[nH]c(=O)n(C2C[C@H](O)[C@@H](CO)O2)cc1C(F)(F)F (stereo not given in full)
5. NC1(C(=O)O)CC1
6. CC(=O)OC1CC(O)C(C)(C)C2CC(=O)C3(C)C(CCC4(C)C(c5ccoc5)OC(=O)C5OC543)C12C (stereo not given)
7. CC(=O)N[C@@H](CC(=O)O)C(=O)N[C@@H](CCC(=O)O)C(=O)O (Ac-Asp-Glu-OH)

1: 0.0741; 2: 1.01; 3: 0.995; 4: 0.97; 5: 1.01; 6: 0.99; 7: 0.99

Dear reader, for each entry below, please note its normalized growth.
1. NC1(C(=O)O)CCC1
2. CCCNC(=O)NS(=O)(=O)c1ccc(Cl)cc1
3. O=C(O)C1CCCNC1 (stereo not given)
4. COC1=CC(=O)OC(CCc2ccc(OC)c(OC)c2)C1 (stereo not given)

0.995
0.997
1.03
1.01
